Species on record: Rattus norvegicus
Protocol Text: Open TG-GATES - Regimen: Single
Type: toxicity, organism-based, Sprague-Dawley
Design: regimen Single, gender Male, age 6 weeks
Applied Conditions: in vivo, po, 100 mg/kg, 6 h, tissue Kidney, route gavage, dose level Low
Quantity Kind: KIDNEY_TOTAL (g)
Write down the numeric answer in g and omit the unit.

Reported KIDNEY_TOTAL ( O=C(OC[C@H]1O[C@@H](OC(=O)c2cc(O)c(O)c(OC(=O)c3cc(O)c(O)c(O)c3)c2)[C@H](OC(=O)c2cc(O)c(O)c(OC(=O)c3cc(O)c(O)c(O)c3)c2)[C@@H](OC(=O)c2cc(O)c(O)c(OC(=O)c3cc(O)c(O)c(O)c3)c2)[C@@H]1OC(=O)c1cc(O)c(O)c(OC(=O)c2cc(O)c(O)c(O)c2)c1)c1cc(O)c(O)c(OC(=O)c2cc(O)c(O)c(O)c2)c1 ) = 1.8

----------
Organism: Rattus norvegicus
Protocol Text: Open TG-GATES - Regimen: Daily Repeat
Format: toxicity, organism-based, Sprague-Dawley
Parameters: regimen Daily Repeat, gender Male, age 6 weeks
Applied Conditions: in vivo, po, 300 mg/kg, […], tissue Blood, route gavage, dose level Middle, time 14 day
Quantity Kind: MCHC (%)
Please reply with the bare figure in % and do not write the unit itself.

Look over these answered cases.
• CNC(=C[N+](=O)[O-])NCCSCc1ccc(CN(C)C)o1 = 36
• COC(=O)C1=C(C)NC(C)=C(C(=O)OC)C1c1ccccc1[N+](=O)[O-] = 33.2
• CN/C(=N/CCSCc1nc[nH]c1C)NC#N = 32.9
• Cc1nnc2n1-c1ccc(Cl)cc1C(c1ccccc1Cl)=NC2 = 32.8
• CCOc1ccc(NC(C)=O)cc1 = 33.5

Turning to the following compound.
Data point: O=C(OC[C@H]1O[C@@H](OC(=O)c2cc(O)c(O)c(OC(=O)c3cc(O)c(O)c(O)c3)c2)[C@H](OC(=O)c2cc(O)c(O)c(OC(=O)c3cc(O)c(O)c(O)c3)c2)[C@@H](OC(=O)c2cc(O)c(O)c(OC(=O)c3cc(O)c(O)c(O)c3)c2)[C@@H]1OC(=O)c1cc(O)c(O)c(OC(=O)c2cc(O)c(O)c(O)c2)c1)c1cc(O)c(O)c(OC(=O)c2cc(O)c(O)c(O)c2)c1 ; MCHC = 33.4

----------
Organism: Rattus norvegicus
Protocol Text: Open TG-GATES - Regimen: Daily Repeat
Format: toxicity, organism-based, Sprague-Dawley
Set-up: regimen Daily Repeat, gender Male, age 6 weeks
Applied Conditions: in vivo, po, 1000 mg/kg, […], tissue Blood, route gavage, dose level High, time 7 day
// NB: equality with 100 x10_2/uL counts as False; only WBC strictly below is True

Illustrative cases are given below, each with its answer.
* CN/C(=N/CCSCc1nc[nH]c1C)NC#N | True
* COC(=O)C1=C(C)NC(C)=C(C(=O)OC)C1c1ccccc1[N+](=O)[O-] | False
* O=C(OC[C@H]1O[C@@H](OC(=O)c2cc(O)c(O)c(OC(=O)c3cc(O)c(O)c(O)c3)c2)[C@H](OC(=O)c2cc(O)c(O)c(OC(=O)c3cc(O)c(O)c(O)c3)c2)[C@@H](OC(=O)c2cc(O)c(O)c(OC(=O)c3cc(O)c(O)c(O)c3)c2)[C@@H]1OC(=O)c1cc(O)c(O)c(OC(=O)c2cc(O)c(O)c(O)c2)c1)c1cc(O)c(O)c(OC(=O)c2cc(O)c(O)c(O)c2)c1 | False
* CCOc1ccc(NC(C)=O)cc1 | False

Input Cc1nnc2n1-c1ccc(Cl)cc1C(c1ccccc1Cl)=NC2 ; condition: WBC strictly below 100 x10_2/uL. Does it hold?
False

----------
Species: Rattus norvegicus
Protocol Text: Open TG-GATES - Regimen: Daily Repeat
Assay type: toxicity, organism-based, Sprague-Dawley
Set-up: regimen Daily Repeat, gender Male, age 6 weeks
Applied Conditions: in vivo, po, 1000 mg/kg, 72 h, tissue Plasma, route gavage, dose level High, time 3 day
Quantity Kind: gamma-GTP
Please answer using the number first and the unit second.

• CN/C(=N/CCSCc1nc[nH]c1C)NC#N = 1.2 IU/L
• COC(=O)C1=C(C)NC(C)=C(C(=O)OC)C1c1ccccc1[N+](=O)[O-] = 0.8 IU/L
• O=C(OC[C@H]1O[C@@H](OC(=O)c2cc(O)c(O)c(OC(=O)c3cc(O)c(O)c(O)c3)c2)[C@H](OC(=O)c2cc(O)c(O)c(OC(=O)c3cc(O)c(O)c(O)c3)c2)[C@@H](OC(=O)c2cc(O)c(O)c(OC(=O)c3cc(O)c(O)c(O)c3)c2)[C@@H]1OC(=O)c1cc(O)c(O)c(OC(=O)c2cc(O)c(O)c(O)c2)c1)c1cc(O)c(O)c(OC(=O)c2cc(O)c(O)c(O)c2)c1 = 1.2 IU/L
• Cc1nnc2n1-c1ccc(Cl)cc1C(c1ccccc1Cl)=NC2 = 1 IU/L
• CNC(=C[N+](=O)[O-])NCCSCc1ccc(CN(C)C)o1 = 1.4 IU/L

Let us move to another entry and its gamma-GTP.
Kindly note the recorded gamma-GTP for CCOc1ccc(NC(C)=O)cc1 , which is 1.4 IU/L

----------
Species on record: Rattus norvegicus
Protocol Text: Open TG-GATES - Regimen: Single
Type: toxicity, organism-based, Sprague-Dawley
Set-up: regimen Single, gender Male, age 6 weeks
Applied Conditions: in vivo, po, 100 mg/kg, 3 h, tissue Blood, route gavage, dose level Low
Measured Fbg by item
Report as a plain number; the unit mg/dL is understood.

Some entries whose results are on file:
* CN/C(=N/CCSCc1nc[nH]c1C)NC#N | 220.4
* CNC(=C[N+](=O)[O-])NCCSCc1ccc(CN(C)C)o1 | 225.4
* COC(=O)C1=C(C)NC(C)=C(C(=O)OC)C1c1ccccc1[N+](=O)[O-] | 279.6
* O=C(OC[C@H]1O[C@@H](OC(=O)c2cc(O)c(O)c(OC(=O)c3cc(O)c(O)c(O)c3)c2)[C@H](OC(=O)c2cc(O)c(O)c(OC(=O)c3cc(O)c(O)c(O)c3)c2)[C@@H](OC(=O)c2cc(O)c(O)c(OC(=O)c3cc(O)c(O)c(O)c3)c2)[C@@H]1OC(=O)c1cc(O)c(O)c(OC(=O)c2cc(O)c(O)c(O)c2)c1)c1cc(O)c(O)c(OC(=O)c2cc(O)c(O)c(O)c2)c1 | 212.2

Input Cc1nnc2n1-c1ccc(Cl)cc1C(c1ccccc1Cl)=NC2 . Output Fbg: 279.8

----------
Species: Rattus norvegicus
Protocol Text: Open TG-GATES - Regimen: Single
Assay type: toxicity, organism-based, Sprague-Dawley
Parameters: regimen Single, gender Male, age 6 weeks
Applied Conditions: in vivo, po, 0 mg/kg, 3 h, tissue Plasma, route gavage, dose level Control
Listed below: CRE values for each entry.
The response must be a number in mg/dL with no trailing unit.

- Nc1c2c(nc3ccccc13)CCCC2: 0.2

# CRE of CCOc1ccc(NC(C)=O)cc1 = 0.2

Briefly, CRE measured for Brc1ccccc1 : 0.2

----------
Organism: Rattus norvegicus
Protocol Text: Open TG-GATES - Regimen: Single
Format: toxicity, organism-based, Sprague-Dawley
Set-up: regimen Single, gender Male, age 6 weeks
Applied Conditions: in vivo, po, 100 mg/kg, 9 h, tissue Plasma, route gavage, dose level Low
Quantity Kind: gamma-GTP (IU/L)
Give just the number in IU/L; leave the unit off.

* COC(=O)C1=C(C)NC(C)=C(C(=O)OC)C1c1ccccc1[N+](=O)[O-] | 1.2

Recorded gamma-GTP (compound CN/C(=N/CCSCc1nc[nH]c1C)NC#N ): 1.2

The reported gamma-GTP of the compound Cc1nnc2n1-c1ccc(Cl)cc1C(c1ccccc1Cl)=NC2 was 1

In plain terms, CNC(=C[N+](=O)[O-])NCCSCc1ccc(CN(C)C)o1 has a documented gamma-GTP of 1.4

gamma-GTP reading for O=C(OC[C@H]1O[C@@H](OC(=O)c2cc(O)c(O)c(OC(=O)c3cc(O)c(O)c(O)c3)c2)[C@H](OC(=O)c2cc(O)c(O)c(OC(=O)c3cc(O)c(O)c(O)c3)c2)[C@@H](OC(=O)c2cc(O)c(O)c(OC(=O)c3cc(O)c(O)c(O)c3)c2)[C@@H]1OC(=O)c1cc(O)c(O)c(OC(=O)c2cc(O)c(O)c(O)c2)c1)c1cc(O)c(O)c(OC(=O)c2cc(O)c(O)c(O)c2)c1 : 1.6

----------
Organism: Rattus norvegicus
Protocol Text: Open TG-GATES - Regimen: Daily Repeat
Format: toxicity, organism-based, Sprague-Dawley
Parameters: regimen Daily Repeat, gender Male, age 6 weeks
Applied Conditions: in vivo, po, 0 mg/kg, […], tissue Plasma, route gavage, dose level Control, time 28 day
The compounds listed here are annotated with their TP.
The response must be a number in g/dL with no trailing unit.

Record excerpt, results attached:
• NC1=NC(=O)C(c2ccccc2)O1 (configuration not stated) = 6.3
• CNC(=C[N+](=O)[O-])NCCSCc1ccc(CN(C)C)o1 = 6.2
• O=C(OC[C@H]1O[C@@H](OC(=O)c2cc(O)c(O)c(OC(=O)c3cc(O)c(O)c(O)c3)c2)[C@H](OC(=O)c2cc(O)c(O)c(OC(=O)c3cc(O)c(O)c(O)c3)c2)[C@@H](OC(=O)c2cc(O)c(O)c(OC(=O)c3cc(O)c(O)c(O)c3)c2)[C@@H]1OC(=O)c1cc(O)c(O)c(OC(=O)c2cc(O)c(O)c(O)c2)c1)c1cc(O)c(O)c(OC(=O)c2cc(O)c(O)c(O)c2)c1 = 6.2
• Brc1ccccc1 = 6.5
• CN(C)CCC(c1ccc(Cl)cc1)c1ccccn1 (configuration not stated) = 6.4
• COC(=O)C1=C(C)NC(C)=C(C(=O)OC)C1c1ccccc1[N+](=O)[O-] = 6.3

Looking up CC(C)NNC(=O)c1ccncc1 , I found its TP recorded as 6.1
